target: Ubiquitin carboxyl-terminal hydrolase 28 (Homo sapiens) (UniProt Q96RU2); assay: Concentration-response biochemical assay confirming initial hits as inhibitors of ubiquitin-specific protease 28 (AID 1645866); details: purified USP28, ubiquitin-rhodamine fluorescence, 30 min
Sequence (Q96RU2 whole entry, looked up): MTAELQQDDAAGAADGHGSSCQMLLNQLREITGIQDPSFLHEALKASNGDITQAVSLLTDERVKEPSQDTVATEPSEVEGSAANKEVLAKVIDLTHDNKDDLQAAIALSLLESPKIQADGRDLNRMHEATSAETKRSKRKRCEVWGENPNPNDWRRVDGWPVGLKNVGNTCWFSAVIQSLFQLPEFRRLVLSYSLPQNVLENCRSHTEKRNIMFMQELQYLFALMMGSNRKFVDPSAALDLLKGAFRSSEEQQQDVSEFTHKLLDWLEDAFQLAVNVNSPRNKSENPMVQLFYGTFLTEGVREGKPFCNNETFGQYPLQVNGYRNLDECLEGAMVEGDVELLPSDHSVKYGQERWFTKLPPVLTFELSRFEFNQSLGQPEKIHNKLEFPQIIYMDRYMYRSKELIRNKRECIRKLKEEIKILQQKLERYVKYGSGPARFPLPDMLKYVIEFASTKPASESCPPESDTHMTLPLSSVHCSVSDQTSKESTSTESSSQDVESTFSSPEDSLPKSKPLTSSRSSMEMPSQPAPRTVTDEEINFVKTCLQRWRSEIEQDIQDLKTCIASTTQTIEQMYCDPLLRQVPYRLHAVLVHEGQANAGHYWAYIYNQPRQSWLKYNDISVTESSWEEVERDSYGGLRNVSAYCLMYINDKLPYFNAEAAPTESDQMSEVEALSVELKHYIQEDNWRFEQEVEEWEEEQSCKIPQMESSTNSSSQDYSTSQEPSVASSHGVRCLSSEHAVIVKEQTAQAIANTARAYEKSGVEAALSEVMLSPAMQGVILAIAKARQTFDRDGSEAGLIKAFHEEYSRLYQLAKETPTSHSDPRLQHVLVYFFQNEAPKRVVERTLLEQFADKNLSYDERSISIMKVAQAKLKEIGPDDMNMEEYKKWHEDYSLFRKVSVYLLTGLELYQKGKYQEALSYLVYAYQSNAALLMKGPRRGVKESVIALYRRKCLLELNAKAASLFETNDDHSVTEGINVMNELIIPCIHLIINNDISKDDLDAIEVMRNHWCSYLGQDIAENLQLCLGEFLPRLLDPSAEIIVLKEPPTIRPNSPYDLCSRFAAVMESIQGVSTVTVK
Active and inactive are the calls of the source.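 Rule for the calls: active = in confirmatory dose-response testing, peak deubiquitinase inhibition of 30% or more; inactive = the rest.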 Positions of bridges follow the written chain, without caps; N, C: chain ends. Residues, ends and D or L forms follow the SMILES beside them. ξ: configuration not given here. *: point of attachment. Pentadecanoyl(3ξ-OH,15-Gua) = N=C(N)NCCCCCCCCCCCCC(O)CC(=O)*
readoutKind: IC50

Worked examples follow.
# compound, dataValue
rows = [
    ("COc1ccc(Nc2nc(C(=O)NCc3ccc4c(c3)OCO4)cc3occc23)cc1", "4.91 µM"),
    ("CCCc1nc2sc3c(NCCN4CCOCC4)ncnc3c2c2c1CCC2", "0.592 µM"),
    ("O=c1sc2ccccc2c(=O)n1Cc1cccc(C(F)(F)F)c1", "1.09 µM"),
    ("COc1ccc(-c2cc(C(=O)NC3CCCCCC3)[nH]n2)cc1S(=O)(=O)N(C)C", "23.6 µM"),
    ("COc1cccc(CN2CCc3nc4nc(C)ccc4cc3C2)c1", "> 50 µM (inactive)"),
    ("COc1ccc(-c2cc3c(=O)n(CC(=O)Nc4ccccc4F)ccn3n2)cc1OC", "33 µM"),
    ("COCCN(C1CCN(CCc2ccc(Cl)cc2)CC1)S(=O)(=O)c1cccc2cccnc12", "> 50 µM (inactive)"),
    ("COc1ccccc1NC(=O)Cn1cc(C(=O)c2ccc(C)cc2)c(=O)c2ccccc21", "21.8 µM"),
    ("O=C(NCc1cccc(NC(=O)C2CC2)c1)Nc1cccc2ccccc12", "20.5 µM"),
    ("CCCCNc1nc2c(-c3ccccc3)nnn2c2ccccc12", "6.63 µM"),
]

Go through the items and report each one's IC50.
1. Cc1ccc(CN2CCCn3nc(C(=O)NCc4ccccc4C)cc3C2=O)cc1
2. COCCCn1c(C(=O)NCCc2ccccc2)cc2c(=O)n3cccc(C)c3nc21
3. Cc1ccc2c(c1)N(C)C(=O)c1cc(NC(=O)c3ccc(F)cc3)ccc1O2
4. O=S1(=O)CCN(Cc2ccccc2)c2c(F)nc(N3CCCCC3)c(F)c21
5. CC1(C)OC2=C(C(=O)c3cc(O)cc(O)c3C2=O)c2cc(CO)c(O)cc21
6. CC1NC(=O)C(CC(N)=O)NC(=O)C(C(C)O)NC(=O)C(Cc2ccc(O)cc2)NC(=O)C(C(C)C)NC(=O)C(NC(=O)CC(O)CCCCCCCCCCCCN=C(N)N)C(C)OC1=O (centres undefined) ({Pentadecanoyl(3ξ-OH,15-Gua)}-TVYTNA; ester 1-C; configuration not given here)

1. 45.2 µM
2. 42.1 µM
3. 4.21 µM
4. > 50 µM (inactive)
5. 18.5 µM
6. 3.63 µM

====

List of pIC50 tested on Ubiquitin carboxyl-terminal hydrolase 28 (Homo sapiens).
Answers are plain numbers, as −log10 of the molar value.

For each entry beneath this line, provide reported pIC50.
1. O=C(Nc1ccc2nccnc2c1)c1cccc(C(F)(F)F)c1
2. COc1ccc2nc(-c3ccc(NC(=O)c4cccc(OC)c4OC)cc3)cn2n1

[4.47, 5.61]

====

Kindly supply the reported IC50 values for the records listed here.
biological target: Ubiquitin carboxyl-terminal hydrolase 28 (Homo sapiens) (UniProt Q96RU2); test: Concentration-response biochemical assay confirming initial hits as inhibitors of ubiquitin-specific protease 28 (AID 1645866); conditions: purified USP28, ubiquitin-rhodamine fluorescence, 30 min
The source made the active and inactive calls.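 Rule for the calls: active = in confirmatory dose-response testing, peak deubiquitinase inhibition of 30% or more; inactive = the rest.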

# compound, IC50
records = [
    ("Cc1cccc(NC(=O)CN2C(=O)COc3cc(S(=O)(=O)N4CCCC4)ccc32)c1C", "21 µM"),
    ("CC1(C)C[C@@H](O)[C@]2(C)CC[C@]3(C)C(=CCC4[C@@]5(C)CC[C@H](O)[C@](C)(CO)[C@@H]5CC[C@]43C)[C@@H]2C1 (stereo partly drawn)", "> 50 µM (inactive)"),
    ("Cc1cc(=O)n(CC(=O)NCc2ccccc2F)c2c1c(C)nn2-c1ccccc1", "18.5 µM"),
    ("C/C1=C\\CCC(C)C(O)CC(O)C(C)C(O)CCC(C)C(O)CC2(O)OC(CC(OC(=O)CC(=O)O)CC(O)CC(O)CC(O)C(C)C(O)/C=C/C(C)C(C(C)CCCCCCCCN=C(N)N)OC1=O)CC(O)C2O (stereo not drawn)", "4.77 µM"),
    ("COc1ccccc1OCC(=O)Nc1ccc2c(c1)CCC(=O)N2Cc1ccccc1", "> 50 µM (inactive)"),
    ("Fc1cccc(-n2cc(-c3noc(-c4ccccn4)n3)nn2)c1", "23.7 µM"),
    ("CCN(CC(=O)Nc1cc(C)on1)c1cccc2ccccc12", "> 50 µM (inactive)"),
    ("CCOc1ccc(S(=O)(=O)Nc2ccc[nH]c2=O)cc1", "> 50 µM (inactive)"),
]

For every record below, what is its IC50?
1. Cc1cc(/C=C2/C(=N)N3C(c4ccccc4)=CSC3=NC2=O)c(C)n1-c1ccc(F)cc1
2. COc1ccc(-c2cc(N3CCC(NC(=O)c4ccccc4)C3)n[nH]2)cc1 (stereo not drawn)

> 50 µM (inactive)
16 µM

Could you tell me IC50 for each of these compounds? They are listed below.
1. O=C(Nc1cccc2ccccc12)N1CCC(c2nc3c(nnn3Cc3ccc(F)cc3)c(=O)[nH]2)CC1
2. Cc1nc(C(=O)N[C@@H](C)C(=O)NCc2ccc3c(c2)OCO3)cc2c1[nH]c1ccccc12
3. C=C(NC(=O)C(=C)NC(=O)c1csc(C2=N[C@@H]3c4csc(n4)[C@H]4NC(=O)c5csc(n5)[C@H]([C@](C)(O)[C@@H](C)O)NC(=O)[C@H]5CSC(=N5)/C(=C/C)NC(=O)C([C@@H](C)O)NC(=O)c5csc(n5)C3(CC2)NC(=O)[C@H](C)NC(=O)C(=C)NC(=O)[C@H](C)NC(=O)C([C@@H](C)CC)N[C@@H]2C=Cc3c(C(C)O)cc(nc3[C@H]2O)C(=O)OC4C)n1)C(N)=O (stereo partly drawn)
4. Cc1ccc2c(c1)c(=O)c(C(=O)c1ccccc1)cn2CC(=O)Nc1ccccc1
5. CC(C)c1nc2sc3c(N(CCO)CCO)ncnc3c2c2c1COC(C)(C)C2
6. Cc1noc(-c2cccn(Cc3cccc(C(F)(F)F)c3)c2=O)n1
7. Cc1nc(-c2cccc(NC(=O)c3ccccc3Cl)c2)no1

["36.1 µM", "22.5 µM", "> 50 µM (inactive)", "15.4 µM", "> 50 µM (inactive)", "8.11 µM", "16.6 µM"]

For each entry beneath this line, provide reported IC50.
1. Cc1cccc(NC(=O)CSc2ccc(-n3cnc(-c4ccccc4)c3)nn2)c1
2. COC(=O)c1ccc(Cn2cnc3ccc(F)cc3c2=O)o1
3. O=C(CN1C(=O)C2CCCC2=Nc2ccccc21)Nc1cc(F)ccc1F (stereo not drawn)
4. CCC(=O)Nc1ccc2c(c1)nc(CSc1nccc(C)n1)n2CC
5. CC12c3ccc4c(c3C(=O)c3occ(c31)C(=O)CC2O)CCC4=O (stereo not drawn)
6. Cc1nc(C(=O)Nc2cccc(Cl)c2Cl)nn1-c1cc(Cl)cc(Cl)c1

1: 16.5 µM; 2: 3.97 µM; 3: 13.5 µM; 4: 0.365 µM; 5: > 50 µM (inactive); 6: 0.163 µM

====

molecular target: Ubiquitin carboxyl-terminal hydrolase 28 (Homo sapiens) (UniProt Q96RU2); assay: Concentration-response biochemical assay confirming initial hits as inhibitors of ubiquitin-specific protease 28 (AID 1645866); conditions: purified USP28, ubiquitin-rhodamine fluorescence, 30 min
Calls of active or inactive are those of the source.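 The calls were made as follows: active = in confirmatory dose-response testing, peak deubiquitinase inhibition of 30% or more; inactive = the rest.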
Permitted responses: active, inactive

Consider the following illustrative entries.
# molecule, className
measured = [
    ("CCOC(=O)c1ccc(NC(=O)COc2cccc3c2CCN(CC)C3=O)cc1", "active"),
    ("Cc1c(-c2ccc(C#N)cc2)oc2ccc(Br)cc2c1=O", "active"),
    ("CC(C)C1Cc2c(sc3nc(SCC(=O)Nc4cccc5ccccc45)nc(N)c23)CO1 (configuration not stated)", "active"),
]

Answer briefly: the call reported for COc1ccc(C(=O)CSc2nnc(-c3cc4cccc(OC)c4o3)n2C)cc1OC in this assay.
inactive

What is the recorded call for this molecule in the test? O=C1N(Cc2cccc(Cl)c2)CCN1c1ccc2c(c1)CCC2
active

Tell me the assay call for O=C(Nc1ccc2c(c1)OCO2)c1[nH]nc2c1CCc1ccccc1-2 please.
active

Each molecule tested received a call. Report the one for Cc1ccccc1Cn1ccc2ccn(Cc3cccnc3)c2c1=O .
active

Look up the recorded call for CCOc1cc(C2C3=C(CC(C)(C)CC3=O)Nc3onc(C)c32)ccc1O (configuration not stated) in this test.
active

====

target: Ubiquitin carboxyl-terminal hydrolase 28 (Homo sapiens); experiment: Concentration-response biochemical assay confirming initial hits as inhibitors of ubiquitin-specific protease 28 (AID 1645866); settings: purified USP28, ubiquitin-rhodamine fluorescence, 30 min
Calls of active or inactive are those of the source.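 How the source made its calls: active means in confirmatory dose-response testing, peak deubiquitinase inhibition of 30% or more; inactive means the rest.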
Mark one answer only. Choices: 1 (yes) for active, 0 (no) for inactive

# example entries with known answers
# compound, assayedSystem, className
rows = [
    ("O=C(O)c1ccccc1C(=O)Nc1ccc(SC(C(=O)Nc2cccc(Cl)c2)c2ccccc2)cc1 (stereo unspecified)", "Ubiquitin carboxyl-terminal hydrolase 28 (Homo sapiens)", "1 (yes)"),
    ("COc1cccc(-n2nnc(C(=O)Nc3ccc(C)c(C)c3)c2C)c1", "Ubiquitin carboxyl-terminal hydrolase 28 (Homo sapiens)", "1 (yes)"),
    ("Nc1ncnc(SCc2ccc(Cl)cc2)n1", "Ubiquitin carboxyl-terminal hydrolase 28 (Homo sapiens)", "1 (yes)"),
    ("COc1c(C)c(C(O)C(C)O)c2[nH]c3ccc(CC=C(C)C)cc3c2c1O (stereo unspecified)", "Ubiquitin carboxyl-terminal hydrolase 28 (Homo sapiens)", "1 (yes)"),
    ("CCCCCC(O)c1c(O)cc2c(c1O)C(=O)c1c(O)cc(O)cc1C2=O (stereo unspecified)", "Ubiquitin carboxyl-terminal hydrolase 28 (Homo sapiens)", "0 (no)"),
]

Now look at this one.
Which outcome was assigned to O=C1CC(O)C(C2=CC(=O)c3c(O)cccc3C2=O)O1 (stereo unspecified) in this test?
1 (yes)

Ref: PubChem BioAssay AID1645866
